- target-desc: T4 polynucleotide kinase (T4 PNK) (Tequatrovirus T4)
- Sequence (P06855 whole entry): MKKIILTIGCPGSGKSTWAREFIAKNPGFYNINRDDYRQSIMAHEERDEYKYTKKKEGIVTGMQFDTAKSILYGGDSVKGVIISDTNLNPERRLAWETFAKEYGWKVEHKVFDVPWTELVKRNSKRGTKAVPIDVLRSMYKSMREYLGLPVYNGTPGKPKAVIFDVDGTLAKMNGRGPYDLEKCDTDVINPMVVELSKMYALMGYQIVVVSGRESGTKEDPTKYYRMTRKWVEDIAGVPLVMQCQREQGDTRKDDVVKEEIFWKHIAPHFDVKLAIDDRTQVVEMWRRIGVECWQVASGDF
pIC50: −log10 of the molar value.
experimental-readout: pIC50

- smiles-structure: "O=S(=O)(O)O"
  target-desc: "T4 polynucleotide kinase (T4 PNK) (Tequatrovirus T4)"
  numeric-result: 1.74
